Tested on: momomycin production in S. rimosus Δrim::aprR
Experiment: induction of momomycin production (HR-HPLC-MS extracted ion chromatograms)
Type: cell-based
Settings: Streptomyces rimosus, 120 h, read-out: half-maximal elicitor concentration (EC50)
pEC50: −log10 of the molar value.
experimental-endpoint: pEC50

[
  {
    "structure-smiles": "CCCCCCCCCCCCCC[C@@H](O)[C@@H](O)[C@@H](N)CO",
    "readout-value": 4.77
  }
]
